- Tested target: α1b-AR (Homo sapiens)
Measured metric: Ki (nM)
Field format: number, assumed nM, no unit text.

(Q) Would you mind telling me what Ki value was observed for COc1ccc(OC)c(S(=O)(=O)N[C@H]2CC[C@H](N3CCN(c4ccccc4OC(C)C)CC3)CC2)c1 [Cpd 36] ?
(A) 424

Continuing:
(Q) Would you mind telling me what Ki value was observed for COc1ccc(Cl)cc1S(=O)(=O)N[C@H]1CC[C@H](N2CCN(c3ccc(F)cc3OCC(F)(F)F)CC2)CC1 [Cpd 81] ?
(A) 90

(Q) Would you mind telling me what Ki value was observed for COc1ccc(F)cc1S(=O)(=O)N[C@H]1CC[C@H](N2CCN(c3ccccc3OC(C)C)CC2)CC1 [Cpd 43] ?
(A) 714

(Q) Would you mind telling me what Ki value was observed for COc1ccc(C)cc1S(=O)(=O)N[C@H]1CC[C@@H](N2CCN(c3ccccc3OC(C)C)CC2)CC1 [Cpd 4] ?
(A) 141

(Q) Would you mind telling me what Ki value was observed for CC(C)Oc1ccccc1N1CCN([C@H]2CC[C@@H](NS(=O)(=O)c3ccccc3[N+](=O)[O-])CC2)CC1 [Cpd 26] ?
(A) 201

* * *

- Tested target: α1d-AR (Homo sapiens, UniProt P25100)
- Construct: expressed in transfected cells; host or cells: COS-7
- Sequence (P25100 whole entry): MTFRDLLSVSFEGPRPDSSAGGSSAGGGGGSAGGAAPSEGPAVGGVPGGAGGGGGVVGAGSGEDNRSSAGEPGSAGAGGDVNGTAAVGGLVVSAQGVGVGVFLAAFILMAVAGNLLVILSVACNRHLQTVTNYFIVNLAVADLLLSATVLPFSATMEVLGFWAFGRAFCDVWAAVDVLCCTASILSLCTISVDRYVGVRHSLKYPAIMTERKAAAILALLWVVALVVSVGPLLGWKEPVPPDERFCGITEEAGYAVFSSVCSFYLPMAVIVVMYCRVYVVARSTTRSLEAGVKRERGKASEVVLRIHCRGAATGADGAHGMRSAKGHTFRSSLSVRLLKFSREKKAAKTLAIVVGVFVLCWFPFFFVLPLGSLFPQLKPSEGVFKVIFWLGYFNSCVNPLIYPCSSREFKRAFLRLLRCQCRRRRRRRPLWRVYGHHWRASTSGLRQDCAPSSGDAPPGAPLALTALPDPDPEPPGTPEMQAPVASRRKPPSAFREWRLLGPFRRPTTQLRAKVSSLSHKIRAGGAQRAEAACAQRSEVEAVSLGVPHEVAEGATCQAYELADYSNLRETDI
- Protocol: α1-Adrenergic receptor radio-ligand (125I-HEAT) binding assay, α1d subtype
- Condition details: COS-7 cell membranes, 125I-HEAT; read-out: Receptor Binding, Ki α1d-AR
Listed below: pKi values for each entry.
// field semantics: pKi = negative decimal log of concentration (mol/L)

Example molecules with recorded pKi:
(Q) Would you mind telling me what pKi value was observed for CC(C)Oc1ccccc1N1CCN([C@H]2CC[C@@H](NS(=O)(=O)c3ccccc3[N+](=O)[O-])CC2)CC1 ?
(A) 8.60

(Q) Would you mind telling me what pKi value was observed for CC(C)Oc1ccccc1N1CCN([C@H]2CC[C@H](NS(=O)(=O)c3cccc(F)c3)CC2)CC1 ?
(A) 7.61

With those in mind, consider the next molecule.
(Q) Would you mind telling me what pKi value was observed for COc1ccc(S(=O)(=O)N[C@H]2CC[C@H](N3CCN(c4ccc(F)cc4OC(C)C)CC3)CC2)cc1OC ?
(A) 7.91

* * *

Listed below: pKi values for each entry.
- Tested target: α1b-AR (Homo sapiens)
- Sequence (P35368 1-520): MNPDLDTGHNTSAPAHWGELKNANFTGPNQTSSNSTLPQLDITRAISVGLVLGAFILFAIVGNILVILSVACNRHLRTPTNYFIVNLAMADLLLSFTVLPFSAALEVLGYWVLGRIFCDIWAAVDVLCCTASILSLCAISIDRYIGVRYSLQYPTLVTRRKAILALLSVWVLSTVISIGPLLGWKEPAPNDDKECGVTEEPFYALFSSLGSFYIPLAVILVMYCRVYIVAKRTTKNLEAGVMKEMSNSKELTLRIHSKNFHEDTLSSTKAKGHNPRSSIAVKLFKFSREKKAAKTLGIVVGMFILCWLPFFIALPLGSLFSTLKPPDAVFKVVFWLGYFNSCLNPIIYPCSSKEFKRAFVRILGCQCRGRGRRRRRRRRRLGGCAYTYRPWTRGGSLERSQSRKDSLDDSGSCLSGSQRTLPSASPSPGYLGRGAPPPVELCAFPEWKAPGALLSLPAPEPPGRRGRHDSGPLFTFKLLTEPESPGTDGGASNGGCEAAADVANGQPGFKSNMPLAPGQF
// field semantics: pKi = negative decimal log of concentration (mol/L)

Example compounds with recorded pKi:
(Q) Would you mind telling me what pKi value was observed for CC(C)Oc1ccccc1N1CCN([C@H]2CC[C@@H](NS(=O)(=O)c3cccc(Cl)c3F)CC2)CC1 [Cpd 23] ?
(A) 6.71

(Q) Would you mind telling me what pKi value was observed for CC(C)Oc1ccccc1N1CCN([C@H]2CC[C@@H](NS(=O)(=O)c3ccccc3F)CC2)CC1 [Cpd 21] ?
(A) 6.99

Continuing:
(Q) Would you mind telling me what pKi value was observed for CC(C)Oc1ccccc1N1CCN([C@H]2CC[C@@H](NS(=O)(=O)c3ccc(S(C)(=O)=O)cc3)CC2)CC1 [Cpd 6] ?
(A) 6.71

(Q) Would you mind telling me what pKi value was observed for CC(C)Oc1ccccc1N1CCN([C@H]2CC[C@@H](NS(=O)(=O)c3ccc(OC(F)(F)F)cc3)CC2)CC1 [Cpd 17] ?
(A) 6.76

(Q) Would you mind telling me what pKi value was observed for CC(C)Oc1ccccc1N1CCN([C@H]2CC[C@H](NS(=O)(=O)c3ccc(C(F)(F)F)cc3)CC2)CC1 [Cpd 37] ?
(A) 6.03

(Q) Would you mind telling me what pKi value was observed for CC(C)Oc1ccccc1N1CCN([C@H]2CC[C@H](NS(=O)(=O)c3ccc(Cl)cc3F)CC2)CC1 [Cpd 52] ?
(A) 6.61
